assay_details: KARI assay of purified S. exigua KARI and variants with NADH (Examples 6-9)
Format: biochemical
condition_summary: cofactor NADH
readout_name: U/mg NADH (specific activity) (U/mg)

[[record]]
molecule = "Se1_KARI^AC1: S. exigua KARI variant S63D, I95A (protein, UniProt D0WGK0 1-342, looked up, variant S63D I95A) Ketol-acid reductoisomerase …: MSVKTKEKEMAVTILYEQDVDPKVIQGLKVGIIGYGSQGHAHALNLMDSGVDVRVGLREGSSDWKTAEEAGLKVTDMDTAAEEADVIMVLVPDEAQPKVYQEHIAAHLKAGNTLAFAHGFNIHYGYIVPPEDVNVIMCAPKGPGHIVRRQFTEGSGVPDLACVQQDATGNAWDIVLSYCWGVGGARSGIIKATFAEETEEDLFGEQAVLCGGLVELVKAGFETLTEAGYPPELAYFECYHEMKMIVDLMYESGIHFMNYSISNTAEYGEYYAGPKVINEQSREAMKEILKRIQDGSFAQEFVDDCNNGHKRLLEQREAINTHPIETTGAQIRSMFSWIKKED"
readout_name = "U/mg NADH (specific activity)"
reported_result = 0.2

[[record]]
molecule = "Se1_KARI^2C6: S. exigua KARI variant L57V, R58P (protein, UniProt D0WGK0 1-342, looked up, variant L57V R58P) Ketol-acid reductoisomerase …: MSVKTKEKEMAVTILYEQDVDPKVIQGLKVGIIGYGSQGHAHALNLMDSGVDVRVGVPEGSSSWKTAEEAGLKVTDMDTAAEEADVIMVLVPDEIQPKVYQEHIAAHLKAGNTLAFAHGFNIHYGYIVPPEDVNVIMCAPKGPGHIVRRQFTEGSGVPDLACVQQDATGNAWDIVLSYCWGVGGARSGIIKATFAEETEEDLFGEQAVLCGGLVELVKAGFETLTEAGYPPELAYFECYHEMKMIVDLMYESGIHFMNYSISNTAEYGEYYAGPKVINEQSREAMKEILKRIQDGSFAQEFVDDCNNGHKRLLEQREAINTHPIETTGAQIRSMFSWIKKED"
readout_name = "U/mg NADH (specific activity)"
reported_result = 0.22

